Property: Ki; scope: individual compounds
protocol-notes: Binding affinity to human recombinant PGD2 receptor subtype 1 by radioligand competition binding assay
Please respond with the number in nM and leave the unit unwritten.

O=C(O)CC1CCn2c1c(Sc1ccc(Cl)cc1)c1c(C3CC3)cc(F)cc12 (centres undefined) = 5.7
CCC(OC)c1cc(F)cc2c1c(Sc1ccc(Cl)cc1)c1n2CCC1CC(=O)O (centres undefined) = 1.1
CS(=O)(=O)c1cc(F)cc2c1c(Sc1ccc(Cl)cc1F)c1n2CCC1CC(=O)O (centres undefined) = 3.5

Lab book: Ki of CSC(C)c1cc(F)cc2c1c(Sc1ccc(Cl)cc1)c1n2CCC1CC(=O)O (centres undefined) noted as 1.6

Lab book: Ki of `CS(=O)(=O)c1cc(F)cc2c1c(C(=O)c1ccc(Cl)cc1)c1n2CCC[C@@H]1CC(=O)O` noted as 1

Lab book: Ki of CCC(CC)c1cc(F)cc2c1c(Sc1ccc(Cl)cc1)c1n2CCC1CC(=O)O (centres undefined) noted as 8.1

Lab book: Ki of CC(=O)c1cc(F)cc2c1c(Sc1ccc(Cl)cc1)c1n2CCC1CC(=O)O (centres undefined) noted as 3.6

Lab book: Ki of CC(c1ccc(Cl)cc1)c1c2n(c3cc(F)cc(S(C)(=O)=O)c13)CCC2CC(=O)O (centres undefined) noted as 14.7

Lab book: Ki of CS(=O)(=O)c1cc(F)cc2c1c(C(=O)c1ccc(Cl)cc1)c1n2CCCC1CC(=O)O (centres undefined) noted as 3

Lab book: Ki of CC(C)C(O)c1cc(F)cc2c1c(Sc1ccc(Cl)cc1)c1n2CCC1CC(=O)O (centres undefined) noted as 7.9

---

protocol-notes: Half life in rat
Type: ADME, organism-based
settings: in vivo
reported-metric: half-life (h)
Please respond with the number in h and leave the unit unwritten.

Lab book: half-life of CS(=O)(=O)c1cc(F)cc2c1c(C(=O)c1ccc(Cl)cc1)c1n2CCCC1CC(=O)O (stereo unspecified) noted as 4.4

---

system-under-test: Thromboxane A2 receptor (Homo sapiens, UniProt P21731)
Sequence (P21731 whole entry): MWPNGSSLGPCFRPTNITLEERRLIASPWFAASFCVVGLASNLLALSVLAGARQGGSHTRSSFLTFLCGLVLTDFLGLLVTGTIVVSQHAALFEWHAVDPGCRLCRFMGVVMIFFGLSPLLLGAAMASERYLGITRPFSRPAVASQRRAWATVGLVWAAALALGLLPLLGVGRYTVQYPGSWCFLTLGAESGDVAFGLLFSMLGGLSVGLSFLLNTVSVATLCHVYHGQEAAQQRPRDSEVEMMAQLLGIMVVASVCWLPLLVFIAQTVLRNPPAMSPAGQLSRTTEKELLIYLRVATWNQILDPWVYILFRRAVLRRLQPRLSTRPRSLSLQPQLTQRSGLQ
protocol-notes: Binding affinity to human recombinant TP receptor by radioligand competition binding assay
Property: pKi; scope: individual compounds
Worth noting: pKi values are minus log10 of concentrations stated in mol/L.

CCS(=O)(=O)c1cc(F)cc2c1c(Sc1ccc(Cl)cc1)c1n2CCC1CC(=O)O (centres undefined) = 6.60
CS(=O)(=O)c1cc(F)cc2c1c(Sc1ccc(C(F)(F)F)cc1)c1n2CCC1CC(=O)O (centres undefined) = 6.54
CS(=O)(=O)c1cc(F)cc2c1c(Sc1ccc3ccccc3c1)c1n2CCC1CC(=O)O (centres undefined) = 6.23
O=C(O)CC1CCn2c1c(Sc1ccc(Cl)cc1)c1c(Br)cc(F)cc12 (centres undefined) = 7.77

Lab book: pKi of CS(=O)(=O)c1cc(F)cc2c1c(Sc1ccc(Cl)cc1)c1n2CCC1CC(=O)O (centres undefined) noted as 6.65

Lab book: pKi of CC(c1ccc(Cl)cc1)c1c2n(c3cc(F)cc(S(C)(=O)=O)c13)CCC2CC(=O)O (centres undefined) noted as 5.50

Lab book: pKi of CC(C)c1cc(F)cc2c1c(Sc1ccc(Cl)cc1)c1n2CCC1CC(=O)O (centres undefined) noted as 7.34

---

system-under-test: Prostaglandin E2 receptor EP2 subtype (Homo sapiens)
Sequence (P43116 whole entry): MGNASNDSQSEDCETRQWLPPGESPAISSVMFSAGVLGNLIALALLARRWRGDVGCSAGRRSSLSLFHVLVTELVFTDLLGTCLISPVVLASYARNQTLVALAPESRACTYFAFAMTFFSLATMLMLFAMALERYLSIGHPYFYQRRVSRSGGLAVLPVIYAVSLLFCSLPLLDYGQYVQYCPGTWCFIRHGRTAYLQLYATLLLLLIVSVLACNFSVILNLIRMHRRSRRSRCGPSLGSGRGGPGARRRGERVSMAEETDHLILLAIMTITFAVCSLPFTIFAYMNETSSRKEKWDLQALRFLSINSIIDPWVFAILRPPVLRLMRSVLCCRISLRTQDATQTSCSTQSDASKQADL
protocol-notes: Binding affinity to EP2 receptor
reported-metric: Ki (µM)
Please respond with the number in µM and leave the unit unwritten.

Lab book: Ki of `CS(=O)(=O)c1cc(F)cc2c1c(C(=O)c1ccc(Cl)cc1)c1n2CCC[C@@H]1CC(=O)O` noted as 3.4

---

system-under-test: Prostaglandin E2 receptor EP3 subtype (Homo sapiens, UniProt P43115)
Sequence (P43115 whole entry): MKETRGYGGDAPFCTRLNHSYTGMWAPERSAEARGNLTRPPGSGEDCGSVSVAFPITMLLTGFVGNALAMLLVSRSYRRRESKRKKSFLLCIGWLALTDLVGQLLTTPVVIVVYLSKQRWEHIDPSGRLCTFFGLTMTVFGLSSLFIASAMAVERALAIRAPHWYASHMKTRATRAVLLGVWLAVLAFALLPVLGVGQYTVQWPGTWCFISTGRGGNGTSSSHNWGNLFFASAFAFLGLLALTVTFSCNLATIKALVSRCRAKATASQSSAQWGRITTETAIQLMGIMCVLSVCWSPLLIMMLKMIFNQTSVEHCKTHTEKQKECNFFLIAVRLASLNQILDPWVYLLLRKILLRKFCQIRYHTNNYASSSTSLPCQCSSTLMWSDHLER
protocol-notes: Binding affinity to EP3 receptor
reported-metric: pKi
Worth noting: pKi values are minus log10 of concentrations stated in mol/L.

Lab book: pKi of `CS(=O)(=O)c1cc(F)cc2c1c(C(=O)c1ccc(Cl)cc1)c1n2CCC[C@@H]1CC(=O)O` noted as 5.30

---

system-under-test: Prostaglandin F2-alpha receptor (Homo sapiens)
Sequence (P43088 whole entry): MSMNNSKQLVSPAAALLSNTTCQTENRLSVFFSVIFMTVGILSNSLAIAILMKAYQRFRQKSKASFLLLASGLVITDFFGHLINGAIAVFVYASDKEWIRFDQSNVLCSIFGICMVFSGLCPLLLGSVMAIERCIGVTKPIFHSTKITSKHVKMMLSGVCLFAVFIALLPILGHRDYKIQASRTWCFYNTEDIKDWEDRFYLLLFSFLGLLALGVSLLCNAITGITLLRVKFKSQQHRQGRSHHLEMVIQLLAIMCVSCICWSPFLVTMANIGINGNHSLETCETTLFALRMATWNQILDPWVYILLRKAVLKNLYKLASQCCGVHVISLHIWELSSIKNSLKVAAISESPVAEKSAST
reported-metric: Ki (µM)
Please respond with the number in µM and leave the unit unwritten.

Here `CS(=O)(=O)c1cc(F)cc2c1c(C(=O)c1ccc(Cl)cc1)c1n2CCC[C@@H]1CC(=O)O` was tested on Prostaglandin F2-alpha receptor (Homo sapiens), and its Ki came to 21.1

---

For Prostaglandin E2 receptor EP1 subtype (Homo sapiens, UniProt P34995), measured pKi is reported for the entries below.
Worth noting: pKi values are minus log10 of concentrations stated in mol/L.

Here `CS(=O)(=O)c1cc(F)cc2c1c(C(=O)c1ccc(Cl)cc1)c1n2CCC[C@H]1CC(=O)O` was tested on Prostaglandin E2 receptor EP1 subtype (Homo sapiens, UniProt P34995), and its pKi came to 5.66

Here `CS(=O)(=O)c1cc(F)cc2c1c(C(=O)c1ccc(Cl)cc1)c1n2CCC[C@@H]1CC(=O)O` was tested on Prostaglandin E2 receptor EP1 subtype (Homo sapiens, UniProt P34995), and its pKi came to 6.85

---

protocol-notes: Binding affinity to human recombinant PGD2 receptor subtype 1 by radioligand competition binding assay
Could you mark each record Condition met if its Ki falls strictly under 2 nM, and Condition not met if it equals or exceeds it?

CS(=O)(=O)c1cc(F)cc2c1c(Sc1ccc(C(F)(F)F)cc1)c1n2CCC1CC(=O)O (centres undefined) = Condition met
CS(=O)(=O)c1cc(F)cc2c1c(Cc1ccc(Cl)cc1)c1n2CCC1CC(=O)O (centres undefined) = Condition met
CS(=O)(=O)c1cc(F)cc2c1c(C(=O)c1ccc(Cl)cc1)c1n2CCC1CC(=O)O (centres undefined) = Condition not met
CS(=O)(=O)c1cc(F)cc2c1c(C(=O)c1ccc(Cl)cc1)c1n2CCCCC1CC(=O)O (centres undefined) = Condition met

Exam item: For CC(C)c1cc(F)cc2c1c(Sc1ccc(Cl)cc1)c1n2CCC1CC(=O)O (centres undefined) , is the recorded Ki below the cut-off of 2 nM?
Marked response: Condition not met

Exam item: For CS(=O)(=O)c1cc(F)cc2c1c(Sc1ccc3ccccc3c1)c1n2CCC1CC(=O)O (centres undefined) , is the recorded Ki below the cut-off of 2 nM?
Marked response: Condition met

Exam item: For O=C(O)CC1CCn2c1c(Sc1ccc(Cl)cc1)c1ccc(F)cc12 (centres undefined) , is the recorded Ki below the cut-off of 2 nM?
Marked response: Condition not met

Exam item: For `CS(=O)(=O)c1cc(F)cc2c1c(C(=O)c1ccc(Cl)cc1)c1n2CCC[C@H]1CC(=O)O` , is the recorded Ki below the cut-off of 2 nM?
Marked response: Condition not met

Exam item: For CC(O)c1cc(F)cc2c1c(Sc1ccc(Cl)cc1)c1n2CCC1CC(=O)O (centres undefined) , is the recorded Ki below the cut-off of 2 nM?
Marked response: Condition not met

Exam item: For CS(=O)(=O)c1cc(F)cc2c1c(-c1cccc(-c3ccccc3)c1)c1n2CCC1CC(=O)O (centres undefined) , is the recorded Ki below the cut-off of 2 nM?
Marked response: Condition met

Exam item: For CCS(=O)(=O)c1cc(F)cc2c1c(Sc1ccc(Cl)cc1)c1n2CCC1CC(=O)O (centres undefined) , is the recorded Ki below the cut-off of 2 nM?
Marked response: Condition not met

Exam item: For CS(=O)(=O)c1cc(F)cc2c1c(CCc1ccc(Cl)cc1)c1n2CCC1CC(=O)O (centres undefined) , is the recorded Ki below the cut-off of 2 nM?
Marked response: Condition not met

Exam item: For O=C(O)CC1CCn2c1c(Sc1ccc(Cl)cc1)c1c(Br)cc(F)cc12 (centres undefined) , is the recorded Ki below the cut-off of 2 nM?
Marked response: Condition not met

Exam item: For CS(=O)(=O)c1cc(F)cc2c1c(Sc1ccc(Cl)cc1)c1n2CCC1CC(=O)O (centres undefined) , is the recorded Ki below the cut-off of 2 nM?
Marked response: Condition met
